Numbers sourced from ChEMBL document CHEMBL1158753.

experimental-details: […] against iv dosed Swiss-Webster mouse
Type: organism-based
applied-conditions: in vivo
parameter: LD50 (mg/kg)
Answer format: numeric, mg/kg implied, no suffix.

| chemical-string | measured |
| --- | --- |
| CC(=O)N1C=C([C@@H]2CCCCN2)CCC1 | 115 |
| CC(=O)N1C=C([C@@H]2CCCCN2C)CCC1 | 63.4 |
| CC(=O)N1C=C([C@H]2CCCCN2C)CCC1 | 56.3 |

Consider now this further molecule.
QUERY: Please give the measured LD50 for this molecule: CC(=O)N1C=C([C@H]2CCCCN2)CCC1
RESULT: 94.1
